Cited source for all entries: patent US20250351832A1

Attribute: % Corrected Mortality at 72 Hrs.
# System: Spodoptera litura
# Applied Conditions: Spodoptera litura 3rd instar on cabbage plants; dose 1 ml/gm/lit. spray; 72 hrs; corrected for water control
Please respond with the number in % and leave the unit unwritten.

1) CC12CCC(CC1)C(C)(C)O2 [1,8 cineole] :: 68.42
2) CCCCCCCCCCCCCCCC(=O)O [Palmitic acid] :: 23.68
3) CCCCC[C@H](O)CC(=O)CCc1ccc(O)c(OC)c1 [Gingerol] :: 34.21
4) Cc1ccc(C(C)C)c(O)c1 [Thymol] :: 63.16
5) C=CCc1ccc(OC)cc1 [Methyl chavicol] :: 60.53
6) CC12CCC(CC1=O)C2(C)C (stereo not shown) [Camphor] :: 42.11
7) O=C(/C=C/C=C/c1ccc2c(c1)OCO2)N1CCCCC1 [Piperine] :: 68.42
8) CC1=CCC2CC1C2(C)C (stereo not drawn) [Alpha-pinene] :: 52.63

Query: % Corrected Mortality at 72 Hrs.; subject: Cc1ccc(C(C)C)cc1O [Carvacrol] 44.74

Follow-up item: C/C=C\c1cc(OC)c(OC)cc1OC [β-Asarone] 52.63

Follow-up item: CCCCCCCCCC(C)=O [Embodiment 2-undecanone, 2-undecanone] 39.47

Follow-up item: C=C1C2CCC(C2)C1(C)C (stereo not shown) [Camphene, camphene] 63.16

Follow-up item: O=c1oc2c(O)c(O)cc3c(=O)oc4c(O)c(O)cc1c4c23 [Ellagic acid] 52.63
